Literature-derived IC50 for Tyrosinase (Agaricus bisporus, UniProt O42713) follows.
Simple rule here: IC50 less than 100 µM is 1.0, otherwise 0.0.

O=C(/C=C/c1ccc(O)cc1O)Nc1ccccc1
1.0

**Q:** Quick check: does O=C1NC(=S)S/C1=C\c1ccccc1O have IC50 under 100 µM?
**A:** 0.0

**Q:** Try S=c1oc(Cc2cccc3ccccc23)nn1CN1CCCC1 next.
**A:** 1.0

----------
Literature-derived pIC50 for Tyrosinase (Agaricus bisporus) follows.
pIC50: −log10 of the molar value.

Example entries begin here.
COc1coc(COC(=O)C2(C)CCc3c(C)c(O)c(C)c(C)c3O2)cc1=O (stereo not drawn)
< 3.70
COc1cccc(-c2cc(OC)c(OC)c(OC)c2)c1F
< 2.70

Moving on to another compound below.
**Q:** Given the entry CONC(=S)Nc1ccc([N+](=O)[O-])cc1 , report its measured pIC50.
**A:** < 3.00
